B1: Azoarcus group I ribozyme (parent)
chain: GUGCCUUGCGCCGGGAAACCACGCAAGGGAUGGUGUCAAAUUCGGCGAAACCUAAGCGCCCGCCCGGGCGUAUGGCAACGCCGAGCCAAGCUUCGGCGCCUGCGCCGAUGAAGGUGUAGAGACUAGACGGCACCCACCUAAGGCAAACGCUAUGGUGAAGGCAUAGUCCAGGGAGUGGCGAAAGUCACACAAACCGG

Variants of: B1
method_description: reverse-splicing fitness (ratio to wild type); higher = more active; in vitro selection; Mg2+ level not given
reverse-splicing fitness overview
property_measured: reverse-splicing fitness

variant_string	readout_number
C82G A111C A120C A145U C150A C169A U176C	0.0129
C82A A111C A120G A145G C150U C169G U176A	0.0123
A111U A120G C150U C169U U176G	0.00701
C82G A111G A120G A145C C150A U176C	0.0132
A111G A120C C150G	0.0783
C82G A111U A120G U176C	0.0216
C82G A145G C150U C169A U176A	0.0169
C82G A111U A120C A145U C150U U176G	0.00687
C82A A111U A120U C169U U176A	0.00519
C82A A111G A145C C169U U176C	0.0113
C82U A120C C150G C169G U176C	0.00447
C82U A120G A145G C150A C169U	0.0101
C82A A111U A145C C150U C169U	0.0112
C82A A120C A145U C169G U176G	0.00482
C82G A111U A120C A145C C150U C169G U176C	0.0221
C82A A120C A145G C150G C169A U176C	0.0128
C82A A120C A145G C150G	0.0213
A111G A145G C169A U176G	0.00526
C82U A111C A120U A145G C150U C169G U176A	0.00475
A111U A120C C169A U176G	0.00415
C82G A111C A120C A145U C150G C169G U176G	0.00673
C82G A111U A145C C150G C169G	0.00784
C82A A111C A120G A145C C150G C169A U176C	0.00612
A111U A120G A145U C150A C169U U176C	0.0173
C82G A111C A145U C150U C169A U176G	0.00772
C82A A111C A145C C150G C169A U176C	0.00911
C150G C169A U176C	0.0144
C82G A111U A145U C150U C169G U176C	0.0142
C82G A111U A120G A145G C169G U176C	0.0235
C82A A111C A120U A145U C150G U176G	0.00259
C82G A111U A120U A145C C150U C169G U176A	0.00298
A120C A145U C150A C169U U176A	0.0459
A145G C150G C169A U176A	0.0133
C82A A111C A120U C150G C169U U176A	0.00407
C82G A120U A145U C150U C169G U176G	0.00167
C82U A111G A120C C150U U176G	0.00651
C82A A111G A120G A145C C150G C169G U176C	0.00788
C82A A111C C169U U176A	0.0162
C82G A111C A120G A145G C150G	0.00751
C82U C150U C169G U176G	0.0052
C82A A111G A145G C150U U176C	0.174
C82G A111G A120C A145G C169G U176G	0.00476
C82U A111U A120U A145G C150U U176A	0.00787
A111C A120U C150G C169U U176A	0.00446
C82G A111U A120G A145U C150U C169A U176A	0.0149
C82A A111U A120C A145C C150U C169G U176A	0.0356
